Quick list: pIC50 per entry.
Test system: A2780
Test: Cytotoxicity against human cisplatin sensitive A2780 cells after 72 hrs by MTT assay
Assay type: functional, cell-based
Settings: A2780, 72 h
pIC50: −log10 of the molar value.
Recorded Metric: pIC50

[
  {
    "Smiles Data": "CC(C)=CCc1[nH]c2ccccc2c1C[C@H]1NC(=O)[C@@H](C)NC1=O",
    "Result": 4.07
  },
  {
    "Smiles Data": "O=C1N[C@H](Cc2c[nH]c3ccccc23)C(=O)N2CCC[C@@H]12",
    "Result": "< 4.00"
  },
  {
    "Smiles Data": "O=C1CNC(=O)[C@H](Cc2c[nH]c3ccccc23)N1",
    "Result": "< 4.00"
  },
  {
    "Smiles Data": "CC(C)=CCc1[nH]c2ccccc2c1C[C@H]1NC(=O)[C@H]2CCCN2C1=O",
    "Result": 4.03
  },
  {
    "Smiles Data": "C[C@H]1NC(=O)[C@H](Cc2c[nH]c3ccccc23)NC1=O",
    "Result": "< 4.00"
  },
  {
    "Smiles Data": "C[C@@H]1NC(=O)[C@H](Cc2c[nH]c3ccccc23)NC1=O",
    "Result": "< 4.00"
  }
]

---

Quick list: pIC50 per entry.
Tested on: A2780
Assay: Cytotoxicity against human cisplatin sensitive A2780 cells after 72 hrs by MTT assay
Type: functional, cell-based
Conditions: A2780, 72 h
pIC50: −log10 of the molar value.

[
  {
    "Smiles Data": "CC(C)=CCc1[nH]c2ccccc2c1C[C@@H]1NC(=O)[C@H](Cc2c[nH]cn2)NC1=O",
    "Modifier": "=",
    "pIC50": 4.04
  },
  {
    "Smiles Data": "C[C@@H]1NC(=O)[C@@H](Cc2c[nH]c3ccccc23)NC1=O",
    "Modifier": "<",
    "pIC50": 4.00
  },
  {
    "Smiles Data": "CC(C)=CCc1[nH]c2ccccc2c1C[C@@H]1NC(=O)CNC1=O",
    "Modifier": "=",
    "pIC50": 4.08
  },
  {
    "Smiles Data": "CC(C)=CCc1[nH]c2ccccc2c1C[C@@H]1NC(=O)[C@@H]2CCCN2C1=O",
    "Modifier": "=",
    "pIC50": 4.08
  },
  {
    "Smiles Data": "CC(C)=CCc1[nH]c2ccccc2c1C[C@H]1NC(=O)[C@H](C)NC1=O",
    "Modifier": "=",
    "pIC50": 4.06
  },
  {
    "Smiles Data": "C[C@H]1NC(=O)[C@@H](Cc2c[nH]c3ccccc23)NC1=O",
    "Modifier": "<",
    "pIC50": 4.00
  },
  {
    "Smiles Data": "CC(C)=CCc1[nH]c2ccccc2c1C[C@H]1NC(=O)[C@@H]2CCCN2C1=O",
    "Modifier": "=",
    "pIC50": 4.00
  },
  {
    "Smiles Data": "CC(C)=CCc1[nH]c2ccccc2c1C[C@@H]1NC(=O)[C@H](CC(C)C)NC1=O",
    "Modifier": "=",
    "pIC50": 4.03
  },
  {
    "Smiles Data": "O=C1N[C@@H](Cc2c[nH]c3ccccc23)C(=O)N2CCC[C@H]12",
    "Modifier": "<",
    "pIC50": 4.00
  }
]

---

Tested on: A2780
Assay: Cytotoxicity against human cisplatin sensitive A2780 cells after 72 hrs by MTT assay
Assay type: functional, cell-based
Settings: A2780, 72 h
Recorded Metric: IC50 (µM)

[
  {
    "Smiles Data": "CC(C)=CCc1[nH]c2ccccc2c1C[C@@H]1NC(=O)[C@H](Cc2ccc(O)cc2)NC1=O",
    "Experimental Target": "A2780",
    "Unit Of Measurement": "µM",
    "Modifier": "=",
    "Measured Number": 89.8
  },
  {
    "Smiles Data": "O=C1N[C@@H](Cc2c[nH]c3ccccc23)C(=O)N[C@H]1Cc1c[nH]c2ccccc12",
    "Experimental Target": "A2780",
    "Unit Of Measurement": "µM",
    "Modifier": ">",
    "Measured Number": 100
  },
  {
    "Smiles Data": "O=C1N[C@@H](Cc2c[nH]c3ccccc23)C(=O)N[C@H]1Cc1c[nH]cn1",
    "Experimental Target": "A2780",
    "Unit Of Measurement": "µM",
    "Modifier": ">",
    "Measured Number": 100
  },
  {
    "Smiles Data": "O=C1N[C@@H](Cc2c[nH]c3ccccc23)C(=O)N[C@H]1Cc1ccccc1",
    "Experimental Target": "A2780",
    "Unit Of Measurement": "µM",
    "Modifier": ">",
    "Measured Number": 100
  },
  {
    "Smiles Data": "CC(C)=CCc1[nH]c2ccccc2c1C[C@@H]1NC(=O)[C@H](C)NC1=O",
    "Experimental Target": "A2780",
    "Unit Of Measurement": "µM",
    "Modifier": "=",
    "Measured Number": 89.8
  },
  {
    "Smiles Data": "CC(C)=CCc1[nH]c2ccccc2c1C[C@@H]1NC(=O)[C@H]2CCCN2C1=O",
    "Experimental Target": "A2780",
    "Unit Of Measurement": "µM",
    "Modifier": "=",
    "Measured Number": 106
  },
  {
    "Smiles Data": "CC(C)=CCc1[nH]c2ccccc2c1C[C@@H]1NC(=O)[C@@H](C)NC1=O",
    "Experimental Target": "A2780",
    "Unit Of Measurement": "µM",
    "Modifier": "=",
    "Measured Number": 77.2
  },
  {
    "Smiles Data": "CC(C)C[C@@H]1NC(=O)[C@H](Cc2c[nH]c3ccccc23)NC1=O",
    "Experimental Target": "A2780",
    "Unit Of Measurement": "µM",
    "Modifier": ">",
    "Measured Number": 100
  },
  {
    "Smiles Data": "CC(C)=CCc1[nH]c2ccccc2c1C[C@@H]1NC(=O)[C@H](Cc2c[nH]c3ccccc23)NC1=O",
    "Experimental Target": "A2780",
    "Unit Of Measurement": "µM",
    "Modifier": "=",
    "Measured Number": 89.7
  }
]

---

Quick list: IC50 per entry.
Test system: A2780
Assay: Cytotoxicity against human cisplatin sensitive A2780 cells after 72 hrs by MTT assay
Format: functional, cell-based
Settings: A2780, 72 h

[
  {
    "Molecule": "O=C1N[C@H](Cc2c[nH]c3ccccc23)C(=O)N2CCC[C@H]12",
    "IC50": "> 100 µM"
  },
  {
    "Molecule": "CC(C)=CCc1[nH]c2ccccc2c1C[C@@H]1NC(=O)[C@H](Cc2ccccc2)NC1=O",
    "IC50": "87 µM"
  },
  {
    "Molecule": "O=C1N[C@@H](Cc2c[nH]c3ccccc23)C(=O)N2CCC[C@@H]12 [BREVIANAMIDE F]",
    "IC50": "> 100 µM"
  },
  {
    "Molecule": "O=C1N[C@@H](Cc2c[nH]c3ccccc23)C(=O)N[C@H]1Cc1ccc(O)cc1",
    "IC50": "> 100 µM"
  }
]
